target or test system: High affinity nerve growth factor receptor (Homo sapiens, UniProt P04629)
Sequence (P04629 whole entry): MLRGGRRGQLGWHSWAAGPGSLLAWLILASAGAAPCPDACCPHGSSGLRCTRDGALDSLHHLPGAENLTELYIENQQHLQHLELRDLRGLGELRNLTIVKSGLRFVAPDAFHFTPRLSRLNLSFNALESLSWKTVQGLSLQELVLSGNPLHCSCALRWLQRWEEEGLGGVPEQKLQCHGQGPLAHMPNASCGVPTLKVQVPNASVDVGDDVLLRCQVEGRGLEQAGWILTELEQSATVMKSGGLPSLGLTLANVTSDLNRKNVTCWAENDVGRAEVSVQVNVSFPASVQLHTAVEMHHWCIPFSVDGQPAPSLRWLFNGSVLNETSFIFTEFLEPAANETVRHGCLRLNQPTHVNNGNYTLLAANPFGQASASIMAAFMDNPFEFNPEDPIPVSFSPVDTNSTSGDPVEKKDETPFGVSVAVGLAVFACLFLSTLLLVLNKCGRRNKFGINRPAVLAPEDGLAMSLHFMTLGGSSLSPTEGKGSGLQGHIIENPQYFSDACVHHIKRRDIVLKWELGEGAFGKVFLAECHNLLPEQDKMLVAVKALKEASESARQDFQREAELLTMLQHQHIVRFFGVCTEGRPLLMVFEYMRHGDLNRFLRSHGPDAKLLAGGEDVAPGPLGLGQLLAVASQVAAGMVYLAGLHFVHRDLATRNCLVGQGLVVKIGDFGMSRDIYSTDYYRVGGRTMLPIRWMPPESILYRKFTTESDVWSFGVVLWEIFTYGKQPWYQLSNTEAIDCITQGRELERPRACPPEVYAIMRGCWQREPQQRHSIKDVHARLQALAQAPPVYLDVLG
test description: Inhibition of TrkA (unknown origin) using fluorescently labeled peptide substrate after 3 hrs
pEC50: −log10 of the molar value.
measured endpoint: pEC50

P: CC1(C)CN(c2ccc(OC(F)(F)F)cc2)C(=O)N1Cc1cccc(-c2nccs2)c1
Q: CC(C)N(Cc1c[nH]c2ncccc12)C(=O)Nc1ccc(SC(F)(F)F)cc1
R: CC(C)N(Cc1c[nH]c2ncccc12)C(=O)Nc1ccc(OC(F)(F)F)cc1
Ask: Ascending by pEC50, please: list the molecules accordingly. Ranked list of labels, please, in the requested order.
Result: P, R, Q
(P: 6.00, R: 7.95, Q: 8.19)
